Biological target: Alpha-1D adrenergic receptor (Homo sapiens)
Sequence (P25100 whole entry): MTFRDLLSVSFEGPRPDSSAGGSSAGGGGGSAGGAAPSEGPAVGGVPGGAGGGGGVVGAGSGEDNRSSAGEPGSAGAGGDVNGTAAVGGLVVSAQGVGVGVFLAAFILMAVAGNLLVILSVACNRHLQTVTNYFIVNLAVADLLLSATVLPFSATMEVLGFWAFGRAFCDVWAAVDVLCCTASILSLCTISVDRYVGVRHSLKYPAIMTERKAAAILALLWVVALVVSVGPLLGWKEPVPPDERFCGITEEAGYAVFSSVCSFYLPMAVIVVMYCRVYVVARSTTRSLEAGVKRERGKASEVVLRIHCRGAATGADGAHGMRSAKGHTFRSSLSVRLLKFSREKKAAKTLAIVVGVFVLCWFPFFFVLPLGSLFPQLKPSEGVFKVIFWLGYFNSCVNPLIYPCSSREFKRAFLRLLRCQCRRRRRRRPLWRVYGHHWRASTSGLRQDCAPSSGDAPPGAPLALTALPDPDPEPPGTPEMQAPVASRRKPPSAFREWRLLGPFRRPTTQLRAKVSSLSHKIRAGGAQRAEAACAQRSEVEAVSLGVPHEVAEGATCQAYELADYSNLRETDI
Experiment: Agonist activity at human cloned adrenergic Alpha-1D receptor expressed in CHO cells assessed as calcium mobilization by FLIPR
Type: functional, cell-based
pEC50: −log10 of the molar value.
I'd be grateful if you could share measured pEC50 for these entries.

pEC50 for COc1ccccc1C1CCc2nc[nH]c2C1 (configuration not stated) ? 5.46

Would you mind doing c1ccc(C2Cc3nccn3C2)cc1 (single isomer, unassigned; form 1) as well? < 5.00

Would you mind doing COCc1ccccc1C1CCc2nc[nH]c2C1 (stereo in doubt; 16) as well? < 5.00

Would you mind doing N#Cc1ccccc1C1Cc2nccn2C1 (configuration not stated) as well? < 5.00

Would you mind doing c1ccc2c(c1)CC(c1ncc[nH]1)C2 as well? < 5.00

Would you mind doing c1ccc(C2Cc3nccn3C2)cc1 (single isomer, unassigned; enantiomer 1) as well? 5.13

Would you mind doing COc1cccc(C2CCc3nc[nH]c3C2)c1 (configuration not stated) as well? < 5.00

Would you mind doing c1ccc(C2CCc3nc[nH]c3C2)cc1 (stereo in doubt; 5) as well? < 5.00

Would you mind doing Clc1ccccc1C1Cc2nccn2C1 (configuration not stated) as well? 6.44

Would you mind doing Clc1ccc(C2CCc3nc[nH]c3C2)cc1 (configuration not stated) as well? < 5.00

Would you mind doing c1ccc(C2Cc3nccn3C2)cc1 (stereo in doubt; 6) as well? < 5.00

Would you mind doing c1ccc2c(c1)CCC2c1ncc[nH]1 (configuration not stated) as well? < 5.00

Taken from ChEMBL document CHEMBL1136872.
